system: rodent lifetime carcinogenesis bioassay, tumor incidence TD50; assay: carcinogenic potency in animals, long-term in vivo studies, CPDB compilation (AID 1745844); details: rat; strain Fischer 344; males; in drinking water; site: preputial gland; lesion: adenoma + adenoma, bilateral; dosed 97 weeks; study length 97 weeks
measured-metric: TD50 (mg/kg/day)
Numeric only. Scale: mg/kg/day

State, in one line, measured TD50 of COc1cc(-c2ccc(N=Nc3c(S(=O)(=O)O)cc4cc(S(=O)(=O)O)cc(N)c4c3O)c(OC)c2)ccc1N=Nc1c(S(=O)(=O)O)cc2cc(S(=O)(=O)O)cc(N)c2c1O
77.1

----------
In this section, each of the molecules is paired with its reported TD50.
test system: rodent lifetime carcinogenesis bioassay, tumor incidence TD50; experiment: carcinogenic potency in animals, long-term in vivo studies, CPDB compilation (AID 1745844); settings: rat; strain Fischer 344; males; in drinking water; site: tunica vaginalis; lesion: mesothelioma; dosed 30 weeks; study length 104 weeks

Here's what some known entries look like.
* CCN(N=O)C(=O)NCC(C)=O | 0.264 mg/kg/day
* CCNC(=O)N(CCO)N=O | 0.576 mg/kg/day

Here is another molecule to look at.
Find the measured TD50 of CCN(N=O)C(=O)NCCO with rodent lifetime carcinogenesis bioassay, tumor incidence TD50 as test system.
0.226 mg/kg/day

----------
test system: rodent lifetime carcinogenesis bioassay, tumor incidence TD50; test: carcinogenic potency in animals, long-term in vivo studies, CPDB compilation (AID 1745844); conditions: mouse; strain B6C3F1; males; by gavage; site: lung; lesion: alveolar/bronchiolar carcinoma; dosed 102 weeks; study length 103 weeks
measured-metric: TD50 (mg/kg/day)
Numeric only. Scale: mg/kg/day

State, in one line, measured TD50 of CC(C)=CCl
199

----------
tested on: rodent lifetime carcinogenesis bioassay, tumor incidence TD50; experiment: carcinogenic potency in animals, long-term in vivo studies, CPDB compilation (AID 1745844); conditions: mouse; strain B6C3F1; females; by gavage; site: jejunum + liver + multiple organs + spleen; lesion: malignant lymphoma, lymphocytic type + malignant lymphoma, mixed type + malignant lymphoma, histiocytic type; dosed 102 weeks; study length 103 weeks
measured-metric: TD50 (mg/kg/day)
Numeric only. Scale: mg/kg/day

State, in one line, measured TD50 of CC(C)=CCl
124

----------
test system: rodent lifetime carcinogenesis bioassay, tumor incidence TD50; assay: carcinogenic potency in animals, long-term in vivo studies, CPDB compilation (AID 1745844); conditions: hamster; strain Syrian Golden; males; in drinking water; site: any site (literature study); lesion: several types; types named in the paper; dosed 102 weeks; study length 102 weeks
measured-metric: TD50 (mg/kg/day)
Numeric only. Scale: mg/kg/day

State, in one line, measured TD50 of CN(N)C=O
4.89

----------
test system: rodent lifetime carcinogenesis bioassay, tumor incidence TD50; assay: carcinogenic potency in animals, long-term in vivo studies, CPDB compilation (AID 1745844); conditions: rat; strain Charles River CD (Sprague-Dawley); males; in feed; site: liver; lesion: hepatocellular carcinoma; dosed 97 weeks; study length 105 weeks
measured-metric: TD50

State, in one line, measured TD50 of CCOCCc1c(-c2ccccc2)nc(N)n2ncnc12
4160 mg/kg/day

----------
system: rodent lifetime carcinogenesis bioassay, tumor incidence TD50; experiment: carcinogenic potency in animals, long-term in vivo studies, CPDB compilation (AID 1745844); details: rat; strain F344/DuCrj; males; in feed; site: stomach, glandular, pyloric region; lesion: adenoma; dosed 104 weeks; study length 104 weeks
measured-metric: TD50

State, in one line, measured TD50 of Oc1ccccc1O
43.5 mg/kg/day

----------
system: rodent lifetime carcinogenesis bioassay, tumor incidence TD50; assay: carcinogenic potency in animals, long-term in vivo studies, CPDB compilation (AID 1745844); details: mouse; strain Swiss albino; males; in drinking water; site: preputial gland; lesion: squamous-cell carcinoma; dosed 51 weeks; study length 61 weeks
measured-metric: TD50 (mg/kg/day)
Numeric only. Scale: mg/kg/day

State, in one line, measured TD50 of CCCN(N)C=O
75.7

----------
system: rodent lifetime carcinogenesis bioassay, tumor incidence TD50; assay: carcinogenic potency in animals, long-term in vivo studies, CPDB compilation (AID 1745844); conditions: rat; strain Fischer 344; males; inhaled; site: mammary gland; lesion: carcinoma + fibroadenoma; dosed 104 weeks; study length 104 weeks
measured-metric: TD50

Find the measured TD50 of C=CC(=C)C with rodent lifetime carcinogenesis bioassay, tumor incidence TD50 as test system.
670 mg/kg/day

----------
system: rodent lifetime carcinogenesis bioassay, tumor incidence TD50; test: carcinogenic potency in animals, long-term in vivo studies, CPDB compilation (AID 1745844); conditions: rat; strain F344/DuCrj; males; in drinking water; site: forestomach; lesion: several types; types named in the paper; dosed 50 weeks; study length 50 weeks
measured-metric: TD50

Find the measured TD50 of CCCCN(N=O)C(N)=O with rodent lifetime carcinogenesis bioassay, tumor incidence TD50 as test system.
2.62 mg/kg/day

----------
In this section, each of the compounds is paired with its reported TD50.
tested on: rodent lifetime carcinogenesis bioassay, tumor incidence TD50; experiment: carcinogenic potency in animals, long-term in vivo studies, CPDB compilation (AID 1745844); conditions: rat; strain Fischer 344; females; in feed; site: liver; lesion: hepatocellular adenoma + hepatoblastoma + hepatocellular carcinoma; dosed 104 weeks; study length 104 weeks
Numeric only. Scale: mg/kg/day

Here's what some known entries look like.
* Brc1cc(Br)c(-c2cc(Br)c(Br)cc2Br)cc1Br | 0.656
* Nc1nc(N)c2nc(-c3ccccc3)c(N)nc2n1 | 520

Find the measured TD50 of Cc1cc(O)c2c(c1)C(=O)c1cc(O)cc(O)c1C2=O with rodent lifetime carcinogenesis bioassay, tumor incidence TD50 as test system.
4300

Find the measured TD50 of Cc1cc(O)c(C(C)(C)C)cc1Sc1cc(C(C)(C)C)c(O)cc1C with rodent lifetime carcinogenesis bioassay, tumor incidence TD50 as test system.
3990

----------
tested on: rodent lifetime carcinogenesis bioassay, tumor incidence TD50; experiment: carcinogenic potency in animals, long-term in vivo studies, CPDB compilation (AID 1745844); details: rat; strain Fischer 344; males; in drinking water; site: pancreas, exocrine; lesion: acinar-cell adenoma; dosed 112 weeks; study length 112 weeks
measured-metric: TD50
Quick note: number first, unit second.

State, in one line, measured TD50 of CN(CCCC(O)c1cccnc1)N=O (stereo unspecified)
2.14 mg/kg/day

----------
tested on: rodent lifetime carcinogenesis bioassay, tumor incidence TD50; assay: carcinogenic potency in animals, long-term in vivo studies, CPDB compilation (AID 1745844); conditions: mouse; strain B6C3F1; females; inhaled; site: pituitary gland; lesion: adenoma; dosed 104 weeks; study length 104 weeks
Calls of active or inactive are those of the source. How the calls were made is not given here.
measured-metric: TD50

State, in one line, measured TD50 of ClC=CCCl
19 mg/kg/day (inactive)

----------
test system: rodent lifetime carcinogenesis bioassay, tumor incidence TD50; assay: carcinogenic potency in animals, long-term in vivo studies, CPDB compilation (AID 1745844); details: mouse; strain B6C3F1; males; in feed; site: liver; lesion: hepatocellular carcinoma; dosed 78 weeks; study length 95 weeks
measured-metric: TD50

Here's what some known entries look like.
• CCn1c2ccccc2c2cc(N)ccc21 = 46.4 mg/kg/day
• Cc1ccc([N+](=O)[O-])cc1N = 266 mg/kg/day
• O=[N+]([O-])c1ccc2nc[nH]c2c1 = 423 mg/kg/day

Here is another molecule to look at.
State, in one line, measured TD50 of Nc1ccc(Cl)cc1N
1370 mg/kg/day

----------
tested on: rodent lifetime carcinogenesis bioassay, tumor incidence TD50; assay: carcinogenic potency in animals, long-term in vivo studies, CPDB compilation (AID 1745844); details: mouse; strain RIII (MTV+); males; in drinking water; site: any site (literature study); lesion: several types; types named in the paper; dosed 104 weeks; study length 104 weeks
measured-metric: TD50 (mg/kg/day)
Numeric only. Scale: mg/kg/day

State, in one line, measured TD50 of O=S(=O)(O)NC1CCCCC1
4670

----------
system: rodent lifetime carcinogenesis bioassay, tumor incidence TD50; assay: carcinogenic potency in animals, long-term in vivo studies, CPDB compilation (AID 1745844); details: rat; strain Fischer 344; males; in drinking water; site: esophagus; lesion: carcinoma; dosed 48 weeks; study length 95 weeks
measured-metric: TD50

State, in one line, measured TD50 of O=NN(CCO)CCO
432 mg/kg/day

----------
test system: rodent lifetime carcinogenesis bioassay, tumor incidence TD50; test: carcinogenic potency in animals, long-term in vivo studies, CPDB compilation (AID 1745844); conditions: monkey; strain Rhesus [Macaca mulatta]; both sexes; several routes; site: any site (literature study); lesion: malignant tumor; dosed 825 weeks; study length 1182 weeks
measured-metric: TD50 (mg/kg/day)
Numeric only. Scale: mg/kg/day

State, in one line, measured TD50 of CNNCc1ccc(C(=O)NC(C)C)cc1
1.9
